Test system: carrageenan-induced paw edema
Assay: Carrageenan-induced paw edema
Format: in vivo, rat
Details: 30 mg/kg i.v.; 4 h post carrageenan
Description: Carrageenan-induced paw edema. The effects of peroxynitrite catalysts in vivo were initially tested on the carrageenan-induced paw edema. […] Paw volume was measured by a plethysmometer immediately before the injection of carrageenan and then at hourly intervals from 1 to 6 h. Edema was expressed as the increase in paw volume (in ml) measured after carrageenan injection compared to the pre-injection value for individual animals.
Form field: % Inhibition of Paw Edema (one value per entry).
API: value field is a number in %; no unit string.

# annotated cases, reported % Inhibition of Paw Edema shown
compound | result.unit | % Inhibition of Paw Edema
Cc1c(-c2c3nc(c(-c4c(C)c(S(=O)(=O)[O-])c(C)c(S(=O)(=O)[O-])c4C)c4ccc([n-]4)c(-c4c(C)c(S(=O)(=O)[O-])c(C)c(S(=O)(=O)[O-])c4C)c4nc(c(-c5c(C)c(S(=O)(=O)[O-])c(C)c(S(=O)(=O)[O-])c5C)c5ccc2[n-]5)C=C4)C=C3)c(C)c(S(=O)(=O)[O-])c(C)c1S(=O)(=O)[O-].[Na+].[Na+].[Na+].[Na+].[Na+].[Na+].[Na+].[Na+].[Zn+2] [ZnTMPS, reference compound] | % | 0
CC(=O)[O-].O=S(=O)(O)c1ccc(-c2c3nc(c(-c4ccc(S(=O)(=O)O)cc4)c4ccc([n-]4)c(-c4ccc(S(=O)(=O)O)cc4)c4nc(c(-c5ccc(S(=O)(=O)O)cc5)c5ccc2[n-]5)C=C4)C=C3)cc1.[Fe+3] | % | 30
Cc1c(-c2c3nc(c(-c4c(C)c(S(=O)(=O)O)c(C)c(S(=O)(=O)O)c4C)c4ccc([nH]4)c(-c4c(C)c(S(=O)(=O)O)c(C)c(S(=O)(=O)O)c4C)c4nc(c(-c5c(C)c(S(=O)(=O)O)c(C)c(S(=O)(=O)O)c5C)c5ccc2[nH]5)C=C4)C=C3)c(C)c(S(=O)(=O)O)c(C)c1S(=O)(=O)O | % | 0
CC(=O)[O-].Cc1c(-c2c3nc(c(-c4c(C)c(S(=O)(=O)[O-])c(C)c(S(=O)(=O)[O-])c4C)c4ccc([n-]4)c(-c4c(C)c(S(=O)(=O)[O-])c(C)c(S(=O)(=O)[O-])c4C)c4nc(c(-c5c(C)c(S(=O)(=O)[O-])c(C)c(S(=O)(=O)[O-])c5C)c5ccc2[n-]5)C=C4)C=C3)c(C)c(S(=O)(=O)[O-])c(C)c1S(=O)(=O)[O-].[Mn+3].[Na+].[Na+].[Na+].[Na+].[Na+].[Na+].[Na+].[Na+] | % | 0
CC(=O)[O-].C[n+]1ccc(-c2c3nc(c(-c4cc[n+](C)cc4)c4ccc([n-]4)c(-c4cc[n+](C)cc4)c4nc(c(-c5cc[n+](C)cc5)c5ccc2[n-]5)C=C4)C=C3)cc1.Cc1ccc(S(=O)(=O)[O-])cc1.Cc1ccc(S(=O)(=O)[O-])cc1.Cc1ccc(S(=O)(=O)[O-])cc1.Cc1ccc(S(=O)(=O)[O-])cc1.[Fe+3] | % | 50

Turning now to a further compound:
Challenge: Respond only with % Inhibition of Paw Edema recorded for CC(=O)[O-].Cc1c(-c2c3nc(c(-c4c(C)c(S(=O)(=O)[O-])c(C)c(S(=O)(=O)[O-])c4C)c4ccc([n-]4)c(-c4c(C)c(S(=O)(=O)[O-])c(C)c(S(=O)(=O)[O-])c4C)c4nc(c(-c5c(C)c(S(=O)(=O)[O-])c(C)c(S(=O)(=O)[O-])c5C)c5ccc2[n-]5)C=C4)C=C3)c(C)c(S(=O)(=O)[O-])c(C)c1S(=O)(=O)[O-].[Fe+3].[Na+].[Na+].[Na+].[Na+].[Na+].[Na+].[Na+].[Na+]
Response given: 80

----------
Form field: % Inhibition of Paw Edema (one value per entry).
Test system: carrageenan-induced paw edema
Assay: Carrageenan-induced paw edema
Format: in vivo, rat
Conditions: 30 mg/kg i.v.; 2 h post carrageenan
API: value field is a number in %; no unit string.

# annotated cases, reported % Inhibition of Paw Edema shown
compound | experimental.system | measured.metric | reported.measurement
Cc1c(-c2c3nc(c(-c4c(C)c(S(=O)(=O)O)c(C)c(S(=O)(=O)O)c4C)c4ccc([nH]4)c(-c4c(C)c(S(=O)(=O)O)c(C)c(S(=O)(=O)O)c4C)c4nc(c(-c5c(C)c(S(=O)(=O)O)c(C)c(S(=O)(=O)O)c5C)c5ccc2[nH]5)C=C4)C=C3)c(C)c(S(=O)(=O)O)c(C)c1S(=O)(=O)O | carrageenan-induced paw edema | % Inhibition of Paw Edema | 0
Cc1c(-c2c3nc(c(-c4c(C)c(S(=O)(=O)[O-])c(C)c(S(=O)(=O)[O-])c4C)c4ccc([n-]4)c(-c4c(C)c(S(=O)(=O)[O-])c(C)c(S(=O)(=O)[O-])c4C)c4nc(c(-c5c(C)c(S(=O)(=O)[O-])c(C)c(S(=O)(=O)[O-])c5C)c5ccc2[n-]5)C=C4)C=C3)c(C)c(S(=O)(=O)[O-])c(C)c1S(=O)(=O)[O-].[Na+].[Na+].[Na+].[Na+].[Na+].[Na+].[Na+].[Na+].[Zn+2] [ZnTMPS, reference compound] | carrageenan-induced paw edema | % Inhibition of Paw Edema | 0
CC(=O)[O-].Cc1c(-c2c3nc(c(-c4c(C)c(S(=O)(=O)[O-])c(C)c(S(=O)(=O)[O-])c4C)c4ccc([n-]4)c(-c4c(C)c(S(=O)(=O)[O-])c(C)c(S(=O)(=O)[O-])c4C)c4nc(c(-c5c(C)c(S(=O)(=O)[O-])c(C)c(S(=O)(=O)[O-])c5C)c5ccc2[n-]5)C=C4)C=C3)c(C)c(S(=O)(=O)[O-])c(C)c1S(=O)(=O)[O-].[Mn+3].[Na+].[Na+].[Na+].[Na+].[Na+].[Na+].[Na+].[Na+] | carrageenan-induced paw edema | % Inhibition of Paw Edema | 0
CC(=O)[O-].C[n+]1ccc(-c2c3nc(c(-c4cc[n+](C)cc4)c4ccc([n-]4)c(-c4cc[n+](C)cc4)c4nc(c(-c5cc[n+](C)cc5)c5ccc2[n-]5)C=C4)C=C3)cc1.Cc1ccc(S(=O)(=O)[O-])cc1.Cc1ccc(S(=O)(=O)[O-])cc1.Cc1ccc(S(=O)(=O)[O-])cc1.Cc1ccc(S(=O)(=O)[O-])cc1.[Fe+3] | carrageenan-induced paw edema | % Inhibition of Paw Edema | 44
CC(=O)[O-].O=S(=O)(O)c1ccc(-c2c3nc(c(-c4ccc(S(=O)(=O)O)cc4)c4ccc([n-]4)c(-c4ccc(S(=O)(=O)O)cc4)c4nc(c(-c5ccc(S(=O)(=O)O)cc5)c5ccc2[n-]5)C=C4)C=C3)cc1.[Fe+3] | carrageenan-induced paw edema | % Inhibition of Paw Edema | 27

Turning now to a further compound:
Challenge: Respond only with % Inhibition of Paw Edema recorded for CC(=O)[O-].Cc1c(-c2c3nc(c(-c4c(C)c(S(=O)(=O)[O-])c(C)c(S(=O)(=O)[O-])c4C)c4ccc([n-]4)c(-c4c(C)c(S(=O)(=O)[O-])c(C)c(S(=O)(=O)[O-])c4C)c4nc(c(-c5c(C)c(S(=O)(=O)[O-])c(C)c(S(=O)(=O)[O-])c5C)c5ccc2[n-]5)C=C4)C=C3)c(C)c(S(=O)(=O)[O-])c(C)c1S(=O)(=O)[O-].[Fe+3].[Na+].[Na+].[Na+].[Na+].[Na+].[Na+].[Na+].[Na+]
Response given: 85

----------
Form field: % Inhibition of Paw Edema (one value per entry).
Test system: carrageenan-induced paw edema
Assay: Carrageenan-induced paw edema
Format: in vivo, rat
Settings: 30 mg/kg i.v.; 1 h post carrageenan
Description: Carrageenan-induced paw edema. The effects of peroxynitrite catalysts in vivo were initially tested on the carrageenan-induced paw edema. […] Paw volume was measured by a plethysmometer immediately before the injection of carrageenan and then at hourly intervals from 1 to 6 h. Edema was expressed as the increase in paw volume (in ml) measured after carrageenan injection compared to the pre-injection value for individual animals.
API: value field is a number in %; no unit string.

molecule | measured.metric | reported.measurement
CC(=O)[O-].Cc1c(-c2c3nc(c(-c4c(C)c(S(=O)(=O)[O-])c(C)c(S(=O)(=O)[O-])c4C)c4ccc([n-]4)c(-c4c(C)c(S(=O)(=O)[O-])c(C)c(S(=O)(=O)[O-])c4C)c4nc(c(-c5c(C)c(S(=O)(=O)[O-])c(C)c(S(=O)(=O)[O-])c5C)c5ccc2[n-]5)C=C4)C=C3)c(C)c(S(=O)(=O)[O-])c(C)c1S(=O)(=O)[O-].[Fe+3].[Na+].[Na+].[Na+].[Na+].[Na+].[Na+].[Na+].[Na+] | % Inhibition of Paw Edema | 0

Challenge: Respond only with % Inhibition of Paw Edema recorded for CC(=O)[O-].Cc1c(-c2c3nc(c(-c4c(C)c(S(=O)(=O)[O-])c(C)c(S(=O)(=O)[O-])c4C)c4ccc([n-]4)c(-c4c(C)c(S(=O)(=O)[O-])c(C)c(S(=O)(=O)[O-])c4C)c4nc(c(-c5c(C)c(S(=O)(=O)[O-])c(C)c(S(=O)(=O)[O-])c5C)c5ccc2[n-]5)C=C4)C=C3)c(C)c(S(=O)(=O)[O-])c(C)c1S(=O)(=O)[O-].[Mn+3].[Na+].[Na+].[Na+].[Na+].[Na+].[Na+].[Na+].[Na+]
Response given: 0

Challenge: Respond only with % Inhibition of Paw Edema recorded for Cc1c(-c2c3nc(c(-c4c(C)c(S(=O)(=O)[O-])c(C)c(S(=O)(=O)[O-])c4C)c4ccc([n-]4)c(-c4c(C)c(S(=O)(=O)[O-])c(C)c(S(=O)(=O)[O-])c4C)c4nc(c(-c5c(C)c(S(=O)(=O)[O-])c(C)c(S(=O)(=O)[O-])c5C)c5ccc2[n-]5)C=C4)C=C3)c(C)c(S(=O)(=O)[O-])c(C)c1S(=O)(=O)[O-].[Na+].[Na+].[Na+].[Na+].[Na+].[Na+].[Na+].[Na+].[Zn+2] [ZnTMPS, reference compound]
Response given: 0
